# targetDesc: T1, HLA-A2/E6 (29-38) tetramer (human; HPV 16)
# T1 construct: also called E6(29-38) peptide-MHC tetramer; E6(29-38)-loaded tetramer
# measurementDescription: tetramer flow cytometry; transfected Jurkat-derived cells, CD8+ population
endpointName: % cells in E6 tet+/CD8- quadrant (%)
Lab book: enter the figure in %, no units written.

[[record]]
binder = "TCR 23 (codon optimized, cysteine modified version) (TCR, V domains shown) V domain 1: AQKITQTQPGMFVQEKEAVTLDCTYDTSDQSYGLFWYKQPSSGEMIFLIYQGSYDEQNATEGRYSLNFQKARKSANLVISASQLGDSAMYFCAMSPPGGSARQLTFGSGTQLTVLP V domain 2: DVKVTQSSRYLVKRTGEKVFLECVQDMDHENMFWYRQDPGLGLRLIYFSYDVKMKEKGDIPEGYSVSREKKERFSLILESASTNQTSMYLCASSPWGQSNQPQHFGDGTRLSILE"
readoutvalue = 0.18

[[record]]
binder = "TCR 24 (codon optimized, cysteine modified version) (TCR, V domains shown) V domain 1: AQKITQTQPGMFVQEKEAVTLDCTYDTSDQSYGLFWYKQPSSGEMIFLIYQGSYDEQNATEGRYSLNFQKARKSANLVISASQLGDSAMYFCAMREGRGDSWGKLQFGAGTQVVVTP V domain 2: DVKVTQSSRYLVKRTGEKVFLECVQDMDHENMFWYRQDPGLGLRLIYFSYDVKMKEKGDIPEGYSVSREKKERFSLILESASTNQTSMYLCASSPFGRGSYEQYFGPGTRLTVTE"
readoutvalue = 0.13


Input TCR 17 (codon optimized, cysteine modified version) (TCR, V domains shown) V domain 1: AQKITQTQPGMFVQEKEAVTLDCTYDTSDPSYGLFWYKQPSSGEMIFLIYQGSYDQQNATEGRYSLNFQKARKSANLVISASQLGDSAMYFCAMREGRGDKIIFGKGTRLHILP V domain 2: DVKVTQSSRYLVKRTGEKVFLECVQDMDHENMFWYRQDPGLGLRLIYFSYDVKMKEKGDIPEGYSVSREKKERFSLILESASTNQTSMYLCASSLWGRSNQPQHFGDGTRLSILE . Output % cells in E6 tet+/CD8- quadrant: 0.17
